Every entry's value here was drawn from ChEMBL document CHEMBL2069283.

- Tested system: Intracellular chorismate mutase (Mycobacterium tuberculosis)
- Assay procedure: Inhibition of Mycobacterium tuberculosis chorismate mutase at 50 uM using chorismate substrate by spectrophotometry
Observed property: inhibition (%)
One number for each entry, in %.

// known answers, use as guide
Entry smiles: COc1cccc(-n2cnc3sc4c(c3c2=O)CCCC4)c1
Tested system: Intracellular chorismate mutase (Mycobacterium tuberculosis)
Unit info: %
inhibition: 47

Entry smiles: O=C(c1ccccc1I)N1CCc2c(sc3ncn(-c4ccccc4)c(=O)c23)C1
Tested system: Intracellular chorismate mutase (Mycobacterium tuberculosis)
Unit info: %
inhibition: 12.6

Continue with the next molecule.
Query block: Form field: reported inhibition of Cc1csc2ncn(-c3ccc(F)cc3)c(=O)c12
Result block: 17.7
